MEASUREMENT NOTES: Cytotoxicity evaluation (Cell Titer 96 AQueous One Solution Cell Proliferation Assay)
Format: cell-based
TEST PARAMETERS: human; GS4.1 cells, cellular viability
PROPERTY MEASURED: CC50

Enquiry: Record request: CC50 value, item COc1ccc2c(O[C@H]3C[C@H]4C(=O)N(C)CCCC/C=C\[C@@H]5C[C@@]5(C(=O)NS(=O)(=O)C5CC5)NC(=O)N4C3)cc(-c3nc(C(F)(F)F)cs3)nc2c1C [Compound 69b]
Return: > 75 µM

Enquiry: COc1ccc2c(O[C@H]3C[C@H]4C(=O)N(C)CCCC/C=C\[C@@H]5C[C@@]5(C(=O)NS(C)(=O)=O)NC(=O)N4C3)cc(-c3nc(C(C)C)cs3)nc2c1C [Compound 63b] , same question.
Return: > 75 µM

Enquiry: COc1cc2c(O[C@H]3C[C@H]4C(=O)N(C)CCCC/C=C\[C@@H]5C[C@@]5(C(=O)NS(=O)(=O)C5(C)CC5)NC(=O)N4C3)cc(-c3nc(C(C)C)cs3)nc2cc1Cl [Compound 56g] , same question.
Return: > 75 µM

Enquiry: COc1ccc2c(O[C@H]3C[C@H]4C(=O)N(C)CCCC/C=C\[C@@H]5C[C@@]5(C(=O)NS(=O)(=O)C5(C)CC5)NC(=O)N4C3)cc(-n3ccc(C(C)C)n3)nc2c1C [Compound 91b] , same question.
Return: 10 to 75 µM

Enquiry: COc1ccc2c(O[C@H]3C[C@H]4C(=O)N(C)CCCC/C=C\[C@@H]5C[C@@]5(C(=O)NS(=O)(=O)C5CC5)NC(=O)N4C3)cc(-c3csc(C(F)(F)F)n3)nc2c1Cl [Compound O1] , same question.
Return: 10 to 75 µM

Enquiry: COc1ccc2c(O[C@H]3C[C@H]4C(=O)N(C)CCCC/C=C\[C@@H]5C[C@@]5(C(=O)NS(=O)(=O)C5CC5)NC(=O)N4C3)cc(-c3nc(C4CC4)cs3)nc2c1Cl [AC1] , same question.
Return: 10 to 75 µM

Enquiry: COc1ccc2c(O[C@H]3C[C@H]4C(=O)N(C)CCCC/C=C\[C@@H]5C[C@@]5(C(=O)NS(=O)(=O)C5CC5)NC(=O)N4C3)cc(-c3nc(C)cs3)nc2c1Cl [AN] , same question.
Return: 10 to 75 µM

Enquiry: COc1ccc2c(O[C@H]3C[C@H]4C(=O)N(C)CCCC/C=C\[C@@H]5C[C@@]5(C(=O)NS(=O)(=O)C5(C)CC5)NC(=O)N4C3)cc(-c3nc(C(C)C)cs3)nc2c1 [Compound 56a] , same question.
Return: > 75 µM

Enquiry: C#CC1(S(=O)(=O)NC(=O)[C@@]23C[C@H]2/C=C\CCCCN(C)C(=O)[C@@H]2C[C@H](Oc4cc(-c5nc(C(C)C)cs5)nc5c(C)c(OC)ccc45)CN2C(=O)N3)CC1 [Compound 83b] , same question.
Return: > 75 µM

Enquiry: C#Cc1csc(-c2cc(O[C@H]3C[C@H]4C(=O)N(C)CCCC/C=C\[C@@H]5C[C@@]5(C(=O)NS(=O)(=O)C5(C)CC5)NC(=O)N4C3)c3ccc(OC)c(C)c3n2)n1 [Compound G4] , same question.
Return: 10 to 75 µM

----------
Kindly state pIC50 for each of the entries shown.
TARGET OR TEST SYSTEM: HCV NS3-NS4A protease (Hepatitis C virus genotype 1b, UniProt P26663)
Sequence (P26663 1027-1208): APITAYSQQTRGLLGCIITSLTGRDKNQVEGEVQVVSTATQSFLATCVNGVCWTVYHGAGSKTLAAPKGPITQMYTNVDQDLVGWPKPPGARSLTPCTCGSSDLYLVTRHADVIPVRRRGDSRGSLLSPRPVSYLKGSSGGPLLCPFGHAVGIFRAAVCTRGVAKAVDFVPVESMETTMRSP
pIC50: −log10 of the molar value.

Enquiry: Record request: pIC50 value, item `COc1ccc2c(O[C@H]3C[C@H]4C(=O)N(C)CCCC/C=C\[C@@H]5C[C@@]5(C(=O)NS(=O)(=O)C5(C)CC5)NC(=O)N4C3)cc(-c3csc(C#N)n3)nc2c1Cl`
Return: > 6.00

Enquiry: `C#Cc1csc(-c2cc(O[C@H]3C[C@H]4C(=O)N(C)CCCC/C=C\[C@@H]5C[C@@]5(C(=O)NS(=O)(=O)C5CC5)NC(=O)N4C3)c3ccc(OC)c(Cl)c3n2)n1` , same question.
Return: > 6.00

Enquiry: COc1ccc2c(O[C@@H]3C[C@H]4C(=O)N(C)CCCCC/C=C\[C@@H]5C[C@@]5(C(=O)NS(=O)(=O)C5(C)CC5)NC(=O)N4C3)cc(-c3nc(C(C)C)cs3)nc2c1C [Compound 76a] , same question.
Return: 5.00 to 6.00

Enquiry: `COc1ccc2c(O[C@H]3C[C@H]4C(=O)N(C)CCCC/C=C\[C@@H]5C[C@@]5(C(=O)NS(=O)(=O)C5CC5)NC(=O)N4C3)cc(-c3csc(C#N)n3)nc2c1Cl` , same question.
Return: > 6.00

Enquiry: COc1ccc2c(O[C@H]3C[C@H]4C(=O)N(C)CCCC/C=C\[C@@H]5C[C@@]5(C(=O)NS(=O)(=O)C5CC5)NC(=O)N4C3)cc(-c3nc(C(C)C)cs3)nc2c1Cl [Compound 62d] , same question.
Return: > 6.00
